Origin of values: patent US20050181376A1

Test system: human microsomal triglyceride transfer protein mRNA
Assay: Antisense inhibition of human microsomal triglyceride transfer protein mRNA levels, quantitative real-time PCR; also: test concentration or dose not given here
Settings: averages from two experiments
Strand notation (5' to 3'): a small letter for the sugar, then the base; units joined by * are phosphorothioate-linked, units joined directly phosphodiester-linked; [ ] holds rarer units or linkages, { } end groups; capitals alone tell only the bases. e = 2'-O-(2-methoxyethyl) (MOE); [5mC] = 5-methylcytosine; d = 2'-deoxy (DNA)
Below, each of the substances is paired with its reported % INHIB (inhibition of human microsomal triglyceride transfer protein mRNA levels) value.
// return numeric value only (unit: %, not printed)

Worked cases, answers included:
# substance, meas value
records = [
    ("144446 (eG*eA*eG*eA*eA*dT*dA*dA*d[5mC]*dT*dA*dT*dT*d[5mC]*dT*eG*eA*e[5mC]*eT*eG; antisense) [compound 144446]", 28),
    ("144417 (eG*e[5mC]*eT*eG*e[5mC]*dA*dG*d[5mC]*d[5mC]*dT*dG*d[5mC]*dT*dT*dT*e[5mC]*e[5mC]*eA*eG*eA; antisense) [compound 144417]", 9),
]

Proceed to the following item.
Entry 144420 (eG*eA*eG*eG*eT*dG*dA*d[5mC]*dA*dG*d[5mC]*dA*dT*d[5mC]*d[5mC]*eA*e[5mC]*e[5mC]*eA*eG; antisense) [compound 144420] , % INHIB (inhibition of human microsomal triglyceride transfer protein mRNA levels) reported as 21
